Provenance of the data: PubChem BioAssay AID1845208

# Tested on: NCI-H196 SCLC complex tumor spheroid viability
# Experiment: Anticancer human tumor NCI-H196 cell line growth inhibition;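 further: spheroids exposed to compounds for 7 days before readout; 100% = DMSO vehicle control wells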
# Experimental parameters: second compound 31.6 µM; first compound 1 µM; active compounds read low
# Method: Multicellular complex tumor spheroid response to DNA repair inhibitors in combination with DNA-damaging drugs This study explores the anticancer activities of DNA-damaging drugs and inhibitors of DNA damage repair, both as single agents and in combinations. […] Twenty-six patient-derived or established malignant cell lines were evaluated representing sarcoma, melanoma, small cell lung cancer (SCLC), non-small cell lung cancer (NSCLC), as well as bladder, ovarian and pancreatic cancers. […]
Endpoint: viability, T/C (%)
Record the value in %, omitting the unit from your answer.

>  <Compound>
CC(C)n1c(=O)n(C)c2cnc3cc(F)c(-c4ccc(OCCCN5CCCCC5)nc4)cc3c21 + Cn1nnc2c(C(N)=O)ncn2c1=O

>  <Endpoint>
viability, T/C

>  <Reported result>
104

$$$$
>  <Compound>
CC1COCCN1c1cc(-c2ccnn2C)c2ccnc(-c3ccn[nH]3)c2n1 (stereo unspecified) + Cn1nnc2c(C(N)=O)ncn2c1=O

>  <Endpoint>
viability, T/C

>  <Reported result>
59.6

$$$$
>  <Compound>
COc1cc(C)[nH]c(=O)c1CN1CCc2c(Cl)cc(C(OC)C3COC3)c(Cl)c2C1=O (stereo unspecified) + Cn1nnc2c(C(N)=O)ncn2c1=O

>  <Endpoint>
viability, T/C

>  <Reported result>
106

$$$$
>  <Compound>
Cc1cc(C)c(CNC(=O)c2cc(-c3ccc(CN4CCOCC4)cc3)cc3c2cnn3C2CCCC2)c(=O)[nH]1 + Cn1nnc2c(C(N)=O)ncn2c1=O

>  <Endpoint>
viability, T/C

>  <Reported result>
110

$$$$
>  <Compound>
[2H]c1nc(C)nc([2H])c1-c1cc(NC[C@@H](C)c2cccc3c(C(=O)NC)ccnc23)ncn1 + Cn1nnc2c(C(N)=O)ncn2c1=O

>  <Endpoint>
viability, T/C

>  <Reported result>
112

$$$$

Please provide the recorded viability, T/C for COc1ccc([C@@H](O)c2cc(-c3ncnc4cc(N5CCOCC5)ccc34)c(F)cc2Cl)nn1 + Cn1nnc2c(C(N)=O)ncn2c1=O , tested on NCI-H196 SCLC complex tumor spheroid viability.
80.1
